# System: Trichoderma viride
# TEST DESCRIPTION: Antifungal activity against Hypocrea rufa at 12.5 to 25 ug/ml after 96 hr by spectrophotometry
# Format: functional, organism-based
The source made the active and inactive calls. The rule behind the calls is not given here.
# valid calls are active, inactive; nothing else

Study these solved cases before continuing.
[[record]]
compound = "COc1cc(OC)c2c(c1)O[C@H](c1ccc(OC)c(OC)c1)[C@@H](O)C2"
test_system = "Trichoderma viride"
class = "inactive"

[[record]]
compound = "CC1(C)OC2Cc3c(O)cc(O)cc3OC2c2cc(O)c(O)cc21 (racemic)"
test_system = "Trichoderma viride"
class = "inactive"

[[record]]
compound = "COc1cc(OC)c2c(c1)OC(c1ccc(OC)c(OC)c1)C(O)C2 (racemic)"
test_system = "Trichoderma viride"
class = "inactive"

[[record]]
compound = "CC(=O)Oc1cc(OC(C)=O)c2c(c1)OC(c1ccc(OC(C)=O)c(OC(C)=O)c1)C(OC(C)=O)C2 (racemic) [(+/-)-PENTAACETYLCATECHIN]"
test_system = "Trichoderma viride"
class = "inactive"

[[record]]
compound = "Oc1cc(O)c2c(c1)O[C@H](c1ccc(O)c(O)c1)[C@@H](O)C2"
test_system = "Trichoderma viride"
class = "active"


### Prompt What did this assay record as the result for CC(=O)Oc1cc(OC(C)=O)c2c(c1)O[C@H](c1ccc(OC(C)=O)c(OC(C)=O)c1)[C@@H](OC(C)=O)C2 [CATECHIN PENTAACETATE] ?
### Response inactive

### Prompt Another compound to look at: Oc1cc(O)c2c(c1)OC(c1ccc(O)c(O)c1)C(O)C2 (racemic)
### Response inactive

### Prompt Another compound to look at: CC1(C)O[C@H]2Cc3c(O)cc(O)cc3O[C@@H]2c2cc(O)c(O)cc21
### Response inactive

* * *

# Test system: Erwinia amylovora
# TEST DESCRIPTION: Bactericidal activity against Erwinia amylovora at 1.6 ug/ml after 24 hr by BacLight bacterial viability fluorescence assay
# Assay type: functional, organism-based
Active and inactive are the calls of the source. The calls are words filed in the database; no cut-off is given here.
ATTRIBUTE MEASURED: Activity

[[record]]
compound = "COc1cc(OC)c2c(c1)O[C@H](c1ccc(OC)c(OC)c1)[C@@H](O)C2 [CATECHIN TETRAMETHYLETHER]"
value_measured = "Active"

[[record]]
compound = "CC(=O)Oc1cc(OC(C)=O)c2c(c1)O[C@H](c1ccc(OC(C)=O)c(OC(C)=O)c1)[C@@H](OC(C)=O)C2 [CATECHIN PENTAACETATE]"
value_measured = "Active"

[[record]]
compound = "Oc1cc(O)c2c(c1)OC(c1ccc(O)c(O)c1)C(O)C2 (racemic)"
value_measured = "Active"

[[record]]
compound = "COc1cc(OC)c2c(c1)OC(c1ccc(OC)c(OC)c1)C(O)C2 (racemic)"
value_measured = "Active"

